Some compounds, each annotated with its measured Percent Effect.
# Study System: Tyrosyl-tRNA synthetase, putative (Trypanosoma cruzi (strain CL Brener))
# Assay Notes: Trypanosoma cruzi tyrosyl tRNA synthetase (TcYRS) SOP
# Format: functional
# Set-up: scale not given: direction of the effect not stated beside the values
# Condition Summary: 30 µM
Recorded Metric: Percent Effect (%)

                                    compound  measured_value
 0  O=C1CSC(c2cccs2)c2cnn(C3CCCC3)c2N1 (centres undefined)            20.5
 1  Cc1ccc(N2CCO[C@H]3CN(Cc4ccncc4)C[C@H]32)nn1            10.3
 2  C[C@H]1C(=O)NC[C@H]2CN(Cc3ccccc3)C[C@H]21               0
 3  COCC(C)NC(=O)c1cn(C(C)(C)C)c2ncccc12 (centres undefined)              10
 4  Cc1cnc(N2CCCC3(CCCN(C)C3)C2)nc1 (centres undefined)            8.64
 5  COCC(=O)NC(C)Cc1cccc(Br)c1 (centres undefined)            19.5
 6                O=C(C1CC1)N1CCC2(CC1)OCCO2            10.4
 7  CCN1C[C@H]2C[C@H](C(=O)NCc3cccnc3)[C@@H](C1)O2            10.3
 8    CCn1ccnc1CN1CCCN(C(=O)Cc2ccc(C)nc2)CC1               0
 9  Cc1cccc(CN2CC[C@@H]3[C@@H]2CCN3C(=O)c2ccno2)n1            1.22
10  O=C(CN1CCN(C(=O)Cc2ccc3c(c2)OCCO3)CC1)NC1CC1            12.2
11  Cc1cccc(CN2CC[C@@H]3[C@@H]2CCN3C(=O)c2cnoc2C)n1            15.8
12   CC[C@H]1N(C)CCC[C@]12CCC(=O)N2Cc1ccncc1              10
13  CN(C)c1ncc2c(n1)C1(CCN(CC3CC3)C1)COC2 (centres undefined)            11.1
14  CCN1C[C@H]2[C@@H](C1)N(S(=O)(=O)c1cccnc1)CC[C@H]2OC           -3.85
15  c1ccc(CN2C[C@@H]3OCCN(CC4CCCO4)[C@@H]3C2)nc1 (some centres undefined)            15.4
16       c1cncc(OC[C@@H]2CCC[C@@]23CNCCO3)c1               0
17  c1cncc(OC[C@@H]2CC[C@H]3[C@H](CCN3Cc3cccs3)O2)c1            8.97
18     CO[C@@H]1CC[C@H]2[C@H]1OCCN2CC1CCOCC1            13.4
19  CCN(CC)C(=O)c1ccc(NC(=O)CNc2ccc(Br)cc2F)cc1            20.8
20  O=C(NC[C@]12COC[C@H]1CN(Cc1cccnc1)C2)c1ccno1            19.2
21  O=C(Cc1ccccn1)N1CCN2C[C@H](Oc3cccc(F)c3)C[C@H]2C1           -5.13
22  CCOCC(O)CN1CCN(C(=O)Cc2ccc3c(c2)CCO3)CC1 (centres undefined)            12.2
23  O=C1NC2(CCNCC2)CC1c1cccnc1 (centres undefined)            8.97
